PROCEDURE_TEXT: Stability in CD1 mouse liver microsomes assessed as parent compound remaining level at 3 uM pre-incubated for 30 mins before NADPH addition by LC-MS/MS analysis
Assay type: ADME, Microsome
CONDITION_CONTEXT: read-out: Stability
ENDPOINT: remaining at 3 µM (%)

O=C1NCc2ncc(-c3ccc(-c4cncc([N-]S(=O)(=O)c5ccc(F)cc5F)c4)s3)cc21.[Na+] | 83
COc1ncc(-c2ccc(-c3cnc4c(c3)CN(C)C4=O)s2)cc1[N-]S(=O)(=O)c1ccccc1C(F)(F)F.[Na+] | 91
CN1Cc2cc(-c3ccc(-c4cncc([N-]S(=O)(=O)c5ccc(F)cc5F)c4)s3)cnc2C1=O.[Na+] | 100
COc1ncc(-c2ccc(-c3cnc4c(c3)CN(C)C4=O)s2)cc1[N-]S(=O)(=O)c1ccc(F)cc1F.[Na+] | 100
CN1Cc2cc(-c3ccc(-c4cncc([N-]S(=O)(=O)c5cccc(C(F)(F)F)c5)c4)s3)cnc2C1=O.[Na+] | 88
CN1Cc2cc(-c3ccc(-c4cncc([N-]S(=O)(=O)c5ccccc5C(F)(F)F)c4)s3)cnc2C1=O.[Na+] | 86
COc1ncc(-c2ccc(-c3cnc4c(c3)CN(C)C4=O)s2)cc1[N-]S(=O)(=O)c1ccccc1[N+](=O)[O-].[Na+] | 95

====

PROCEDURE_TEXT: Cmax in CD1 mouse at 75 mg/kg, ip measured during 15 mins to 24 hrs by LC-MS/MS analysis
Assay type: ADME, organism-based
Design: dose 75 mg/kg, route intraperitoneal
CONDITION_CONTEXT: in vivo
ENDPOINT: Cmax (µM)
Value expressed in µM; do not type the unit.

Q) Field request: Cmax | item: `COc1ncc(-c2ccc(-c3cnc4c(c3)CN(C)C4=O)s2)cc1NS(=O)(=O)c1ccccc1[N+](=O)[O-]`
A) 637

====

PROCEDURE_TEXT: Protein binding in CD1 mouse plasma at 10 uM incubated for 6 hrs by LC-MS/MS analysis and equilibrium dialysis
Type: ADME, cell-free
CONDITION_CONTEXT: read-out: PPB (converted)
ENDPOINT: fraction unbound at 6 h, 10 µM

COc1ncc(-c2ccc(-c3cnc4c(c3)CN(C)C4=O)s2)cc1NS(=O)(=O)c1ccc(F)cc1F | 0.0009
O=C1NCc2ncc(-c3ccc(-c4cncc(NS(=O)(=O)c5ccc(F)cc5F)c4)s3)cc21 | 0.0011

P. COc1ncc(-c2ccc(-c3cnc4c(c3)CN(C)C4=O)s2)cc1NS(=O)(=O)c1ccccc1[N+](=O)[O-]
Q. CN1Cc2cc(-c3ccc(-c4cncc(NS(=O)(=O)c5ccc(F)cc5F)c4)s3)cnc2C1=O
Q) Of P and Q , whose reported fraction unbound at 6 h, 10 µM is the larger number? Your answer should be the label of the entry you select.
A) P

====

PROCEDURE_TEXT: Stability Milli-Q water at 10 uM incubated for 24 hrs by LC-MS/MS analysis
Type: physicochemical
CONDITION_CONTEXT: read-out: Stability
ENDPOINT: remaining at 24 h, 10 µM (%)

COc1ncc(-c2ccc(-c3cnc4c(c3)CN(C)C4=O)s2)cc1[N-]S(=O)(=O)c1ccccc1[N+](=O)[O-].[Na+] | 100
CN1Cc2cc(-c3ccc(-c4cncc([N-]S(=O)(=O)c5ccc(F)cc5F)c4)s3)cnc2C1=O.[Na+] | 100
O=C1NCc2ncc(-c3ccc(-c4cncc([N-]S(=O)(=O)c5ccc(F)cc5F)c4)s3)cc21.[Na+] | 93
COc1ncc(-c2ccc(-c3cnc4c(c3)CN(C)C4=O)s2)cc1[N-]S(=O)(=O)c1ccc(F)cc1F.[Na+] | 100
